method_summary: Water solubility
measure: solubility

Reported solubility, compound O=c1cc(CO)occ1O [Kojic acid] : ____
48.3 mg/mL

====

method_summary: physchem
measurement_setup: pH 6.5
Numbered stars: 1 amine (or outer) side, 2 acyl side, 3 side chain; on linkers, the order of the positions; unused ones are H or OH. Bridge positions count the residues as written; N and C are the ends. Square brackets hold non-standard residues; d marks the D form. Peptide text beside a SMILES is read from it. I, II: the chains in the order shown. γGlu = O=C(O)[C@H](CCC(=O)[*:2])N[*:1]
Give measured remaining at 720 h, 10000 µM for each item. Keep answers brief.
Give bare numbers, in %.

Example entries begin here.
Reported remaining at 720 h, 10000 µM, compound N[C@@H](CCC(=O)N[C@@H](CS)C(=O)NCC(=O)O)C(=O)O : ____
0

Reported remaining at 720 h, 10000 µM, compound OC[C@H]1O[C@@H](Oc2ccc(O)cc2)[C@H](O)[C@@H](O)[C@@H]1O : ____
100

Reported remaining at 720 h, 10000 µM, compound N[C@@H](CCC(=O)N[C@@H](CSSC[C@H](NC(=O)CC[C@H](N)C(=O)O)C(=O)O)C(=O)O)C(=O)O [γ-L-glutamyl-L-cysteine disulfide] : ____
100

Reported remaining at 720 h, 10000 µM, compound CC(=O)N[C@@H](CCC(=O)N[C@@H](CSSC[C@H](NC(=O)CC[C@H](NC(C)=O)C(=O)O)C(=O)NCC(=O)O)C(=O)NCC(=O)O)C(=O)O [N,N'-diacetyl-oxidized glutathione, N,N'-diacetyl oxidized glutathione] (I: Ac-[γGlu]-Cys-Gly-OH / II: Ac-[γGlu]-Cys-Gly-OH; disulfide I:2-II:2) : ____
100

API: the following record is the query input.
Reported remaining at 720 h, 10000 µM, compound N[C@@H](CCC(=O)N[C@@H](CSSC[C@H](N)C(=O)O)C(=O)O)C(=O)O : ____
100

====

method_summary: Heat stability: residual rate after heating at 100° C. for 20 minutes
measurement_setup: pH 6.5
measure: remaining at 20 min, 10000 µM (%)
Give bare numbers, in %.

Reported remaining at 20 min, 10000 µM, molecule O=c1cc(CO)occ1O : ____
100

====

method_summary: physchem
measurement_setup: water
Numbered stars: 1 amine (or outer) side, 2 acyl side, 3 side chain; on linkers, the order of the positions; unused ones are H or OH. Bridge positions count the residues as written; N and C are the ends. Square brackets hold non-standard residues; d marks the D form. Peptide text beside a SMILES is read from it. I, II: the chains in the order shown. γGlu = O=C(O)[C@H](CCC(=O)[*:2])N[*:1]
Give measured solubility for each item. Keep answers brief.

Example entries begin here.
Reported solubility, compound N[C@@H](CCC(=O)N[C@@H](CSSC[C@H](N)C(=O)O)C(=O)O)C(=O)O : ____
> 742 mg/mL

Reported solubility, compound CC(=O)N[C@@H](CCC(=O)N[C@@H](CSSC[C@H](NC(=O)CC[C@H](NC(C)=O)C(=O)O)C(=O)NCC(=O)O)C(=O)NCC(=O)O)C(=O)O [N,N'-diacetyl-oxidized glutathione, N,N'-diacetyl oxidized glutathione] (I: Ac-[γGlu]-Cys-Gly-OH / II: Ac-[γGlu]-Cys-Gly-OH; disulfide I:2-II:2) : ____
> 200 mg/mL

Give measured solubility for every item shown.
1. OC[C@H]1O[C@@H](Oc2ccc(O)cc2)[C@H](O)[C@@H](O)[C@@H]1O
2. N[C@@H](CCC(=O)N[C@@H](CSSC[C@H](NC(=O)CC[C@H](N)C(=O)O)C(=O)O)C(=O)O)C(=O)O [γ-L-glutamyl-L-cysteine disulfide]

142 mg/mL
> 554 mg/mL

====

method_summary: physchem
measurement_setup: pH 6.5
Numbered stars: 1 amine (or outer) side, 2 acyl side, 3 side chain; on linkers, the order of the positions; unused ones are H or OH. Bridge positions count the residues as written; N and C are the ends. Square brackets hold non-standard residues; d marks the D form. Peptide text beside a SMILES is read from it. I, II: the chains in the order shown. γGlu = O=C(O)[C@H](CCC(=O)[*:2])N[*:1]
measure: remaining at 20 min, 10000 µM
Lab note: write values as number then unit, every time.

Example entries begin here.
Reported remaining at 20 min, 10000 µM, molecule CC(=O)N[C@@H](CCC(=O)N[C@@H](CSSC[C@H](NC(=O)CC[C@H](NC(C)=O)C(=O)O)C(=O)NCC(=O)O)C(=O)NCC(=O)O)C(=O)O [N,N'-diacetyl-oxidized glutathione, N,N'-diacetyl oxidized glutathione] (I: Ac-[γGlu]-Cys-Gly-OH / II: Ac-[γGlu]-Cys-Gly-OH; disulfide I:2-II:2) : ____
100%

Reported remaining at 20 min, 10000 µM, molecule N[C@@H](CCC(=O)N[C@@H](CS)C(=O)NCC(=O)O)C(=O)O : ____
70%

Reported remaining at 20 min, 10000 µM, molecule N[C@@H](CCC(=O)N[C@@H](CSSC[C@H](N)C(=O)O)C(=O)O)C(=O)O : ____
100%

Reported remaining at 20 min, 10000 µM, molecule N[C@@H](CCC(=O)N[C@@H](CSSC[C@H](NC(=O)CC[C@H](N)C(=O)O)C(=O)O)C(=O)O)C(=O)O [γ-L-glutamyl-L-cysteine disulfide] : ____
100%

***
Reported remaining at 20 min, 10000 µM, molecule OC[C@H]1O[C@@H](Oc2ccc(O)cc2)[C@H](O)[C@@H](O)[C@@H]1O : ____
100%

====

method_summary: Storage stability: residual rate after allowing to stand at 40° C. for 30 days
measurement_setup: pH 6.5
measure: remaining at 720 h, 10000 µM (%)
Numbers only, in %.

Reported remaining at 720 h, 10000 µM, compound O=c1cc(CO)occ1O [Kojic acid] : ____
100
